Examples of compounds with documented pIC50 follow.
ASSAY_SYSTEM: UniProtKB Q9NR97
Sequence (Q9NR97 27-1041): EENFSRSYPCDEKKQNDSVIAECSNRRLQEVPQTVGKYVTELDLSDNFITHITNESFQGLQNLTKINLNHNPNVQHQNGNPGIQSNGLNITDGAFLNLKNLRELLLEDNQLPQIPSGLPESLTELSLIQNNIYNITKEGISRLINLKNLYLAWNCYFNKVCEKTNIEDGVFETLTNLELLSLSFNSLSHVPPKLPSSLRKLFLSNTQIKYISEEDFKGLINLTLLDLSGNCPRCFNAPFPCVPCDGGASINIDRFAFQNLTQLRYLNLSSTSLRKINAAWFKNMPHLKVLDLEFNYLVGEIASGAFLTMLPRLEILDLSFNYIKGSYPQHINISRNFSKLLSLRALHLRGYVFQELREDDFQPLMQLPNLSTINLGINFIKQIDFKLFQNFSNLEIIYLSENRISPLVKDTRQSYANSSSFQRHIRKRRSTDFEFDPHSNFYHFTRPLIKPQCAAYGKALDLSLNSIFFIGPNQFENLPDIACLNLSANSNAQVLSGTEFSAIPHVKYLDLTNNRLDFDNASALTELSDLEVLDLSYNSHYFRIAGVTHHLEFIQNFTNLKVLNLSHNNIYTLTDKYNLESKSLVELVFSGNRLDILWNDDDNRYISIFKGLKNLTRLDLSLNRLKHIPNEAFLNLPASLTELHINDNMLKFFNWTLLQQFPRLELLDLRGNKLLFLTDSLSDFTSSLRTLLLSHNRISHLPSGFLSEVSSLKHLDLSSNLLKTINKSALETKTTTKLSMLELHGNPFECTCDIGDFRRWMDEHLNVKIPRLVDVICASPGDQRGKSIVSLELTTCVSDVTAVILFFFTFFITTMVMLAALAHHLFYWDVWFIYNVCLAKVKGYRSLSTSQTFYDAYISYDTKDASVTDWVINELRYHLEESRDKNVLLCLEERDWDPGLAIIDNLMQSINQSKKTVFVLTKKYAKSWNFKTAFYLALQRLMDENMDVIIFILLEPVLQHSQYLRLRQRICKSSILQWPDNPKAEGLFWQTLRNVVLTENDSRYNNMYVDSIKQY
TEST_DESCRIPTION: TLR8 inhibition reporter assay (HEK-Blue cells, SEAP reporter)
TEST_CONTEXT: HEK-Blue cells overexpressing human TLR8; stimulated with R848 15.9 μM; 22 hour incubation; SEAP readout
pIC50: −log10 of the molar value.

Q. Returns the measured pIC50 for the input compound. Input: CC(C)CN1C2CCC1CC(N1CCC(c3cc(F)c4nc(-c5ccc(S(C)(=O)=O)cc5)cn4c3)CC1)C2 (single isomer, unassigned) [Example 113]
A. < 4.30

Q. // lookup pIC50 for COc1ccc(-c2cn3c(n2)CCC(C2CCN(C4CCN(C(C)C)CC4)CC2)C3)cc1OC (single isomer, unassigned) [Example 36]
A. < 4.30

Q. Would you kindly share the measured pIC50 for CS(=O)(=O)c1ccc(-c2cn3c(n2)CC[C@@H](C2CCN(C4CC5CCC(C4)N5CC4CC4)CC2)C3)cc1 (single isomer, unassigned) [Example 141] ?
A. < 4.30

Q. Item under review: COc1ccc(-c2cn3c(n2)CCC(C2CCN(C4CC5(C4)CN(C4CCC4)C5)CC2)C3)cc1OC (single isomer, unassigned) [Example 49] . Reported pIC50?
A. < 4.30

Q. # input compound: Cc1cc(-c2ccc(N3CCN(C4CCC4)CC3)cc2)cn2cc(-c3ccc(S(C)(=O)=O)cc3)nc12 [Example 102] ; wanted: its pIC50
A. 4.77

Q. What pIC50 value was documented for this compound, Cc1cc(-c2ccc(N3CCN(C4CCOCC4)CC3)cc2)cn2cc(-c3ccc(S(C)(=O)=O)cc3)nc12 [Example 104] ?
A. < 4.30

Q. Field request: pIC50 | item: CC(C)N1CCCC(N2CCC(c3cc(F)c4nc(-c5ccc(S(C)(=O)=O)cc5)cn4c3)CC2)CC1 (single isomer, unassigned) [Example 71]
A. < 4.30

Q. Tell me the measured pIC50 of COc1ccc(-c2cn3c(n2)CC(C2CCN(C4CCN(C(C)C)CC4)CC2)CC3)cc1OC (racemic) [Example 58] , please.
A. 4.82

Q. // pIC50 lookup, key: COc1ccc(-c2cn3cc(-c4ccc(N5CCN(C6COC6)CC5)cc4)cc(C)c3n2)cc1OC [Example 64]
A. < 4.60

Q. # get_value(readout='pIC50', item= COc1ccc(-c2cn3c(n2)CCC(C2CCN(C4CCN(C5CC5)CC4)CC2)C3)cc1OC (single isomer, unassigned) [Example 37] )
A. < 4.30

Q. Consider the compound shown here: COc1ccc(-c2cn3cc(C4CCN(C5CCN(C6CC6)CC5)CC4)cc(C)c3n2)cc1F [Example 4] What is its recorded pIC50?
A. < 4.30

Q. Can you share its pIC50? I mean this compound: CS(=O)(=O)c1ccc(-c2cn3c(n2)CC[C@H](C2CCN(C4CC5CCC(C4)N5CC4CC4)CC2)C3)cc1 (single isomer, unassigned) [Example 138]
A. < 4.30

Q. Fill in the blank: the reported pIC50 of COc1ccc(-c2cn3cc(C4CCN(C5CC6CCC(C5)N6C(C)C)CC4)cc(C)c3n2)cc1OC (single isomer, unassigned) [Example 23] is ____.
A. < 4.30

Q. Suppose we examine the compound Cc1cc(C2CCN(C3CCN(CC4CC4)CC3)CC2)cn2cc(-c3ccc(S(C)(=O)=O)cc3)nc12 [Example 92] ; what pIC50 value has been reported?
A. < 4.60

Q. Please report the recorded pIC50 for CC(C)CN1CCCC(N2CCC(c3cc(F)c4nc(-c5ccc(S(C)(=O)=O)cc5)cn4c3)CC2)CC1 (single isomer, unassigned) [Example 125] .
A. 4.32

Data provenance is patent US12486267B2.
